Below, each entry is listed alongside its reported Dmax.
molecular target: BCL6 (Homo sapiens, UniProt P41182); construct: endogenous in cells; host or cells: T47D breast cancer epithelial cells; assay: Immunofluorescence protocol for high content imaging of BCL6 (degradation) in T47D cells, 3 days compound treatment; format: cell-based; conditions: T47D cells, 3 days compound treatment, read-out: Mean Dmax (%)** category

Worked examples follow.
# molecule, Dmax
measured = [
    ("CNC(=O)COc1cc2cc(Nc3nc(N4CC(C)OC(C)C4)ncc3Cl)ccc2n(CCOc2ccc3c(c2)C(=O)N(C2CCC(=O)NC2=O)C3=O)c1=O (centres unmarked) [Compound 33]", "< 50%"),
    ("CNC(=O)COc1cc2cc(Nc3nc(N4CCC(C(C)(C)N5CCC6(CC5)CN(c5cccc7c5C(=O)N(C5CCC(=O)NC5=O)C7=O)C6)CC4)ncc3Cl)ccc2n(C(C)C)c1=O (centres unmarked) [Compound 46]", "≥ 70%"),
    ("CNC(=O)COc1cc2cc(Nc3nc(N4CCC5(CCN(CC6CCN(c7ccc8c(c7)C(=O)N(C7CCC(=O)NC7=O)C8=O)CC6)C5)C4)ncc3Cl)ccc2n(C(C)C)c1=O (centres unmarked) [Compound 4]", "< 50%"),
    ("CNC(=O)COc1cc2cc(Nc3nc(N4CCC(CN5CC6(CCN(c7ccc8c(c7)CN(C7CCC(=O)NC7=O)C8=O)CC6(F)F)C5)CC4)ncc3Cl)ccc2n(C(C)C)c1=O (centres unmarked) [Compound 136]", "50 to 70%"),
]

From here, focus on the item given below.
Exercise: Supply Dmax value. Item: CNC(=O)COc1cc2cc(Nc3nc(N4CCC(F)(CN5CCC6(CCN(c7ccc8c(c7)CN(C7CCC(=O)NC7=O)C8=O)C6)C5)CC4)ncc3Cl)ccc2n(C(C)C)c1=O (centres unmarked) [Compound 17]
Solution: < 50%
